Property: AUC(0-t); scope: individual compounds
experiment: Pharmacokinetics after intravenous and oral administration in rats; type: in vivo; conditions: rat, plasma, iv dosing, dose 1 mg/kg (Ex. 27: 0.72 mg/kg)

>  <compound>
Cc1cnc(Nc2cnn(C)c2)nc1NC1CC2CN(c3ccc(C#N)cn3)CC2C1 (stereo not drawn)

>  <AUC(0-t) / ng·h/mL>
648

$$$$
>  <compound>
CN(c1ccnc(Nc2cnn(C)c2)n1)C1CNCC12CCCC2 (stereo not drawn)

>  <AUC(0-t) / ng·h/mL>
103

$$$$
>  <compound>
CC(=O)N1CCC2(CCC(Nc3nc(Nc4cnn(C)c4)ncc3Cl)CC2)CC1

>  <AUC(0-t) / ng·h/mL>
251

$$$$
>  <compound>
CC(=O)N1CC2CC(Nc3nc(Nc4cc(C5CC5)[nH]n4)ncc3Cl)CC2C1 (stereo not drawn)

>  <AUC(0-t) / ng·h/mL>
296

$$$$
>  <compound>
Cn1cc(Nc2ncc(Cl)c(NC3CC4CN(C(=O)CC#N)CC4C3)n2)cn1 (stereo not drawn)

>  <AUC(0-t) / ng·h/mL>
143

$$$$
>  <compound>
Cn1cc(Nc2ncc(Cl)c(NC3CC4CN(S(C)(=O)=O)CC4C3)n2)cn1 (stereo not drawn)

>  <AUC(0-t) / ng·h/mL>
272

$$$$
>  <compound>
Cn1cc(Nc2ncc(Cl)c(NC3CC4CN(c5ccc(C#N)cn5)CC4C3)n2)cn1 (stereo not drawn)

>  <AUC(0-t) / ng·h/mL>
702

$$$$
>  <compound>
Cn1nc(C2CC2)cc1Nc1ncc(Cl)c(NC2CC3CN(C(=O)CC#N)CC3C2)n1 (stereo not drawn)

>  <AUC(0-t) / ng·h/mL>
459

$$$$
>  <compound>
Cn1cc(Nc2ncc(Cl)c(NC3CCC4(CC3)CCN(S(C)(=O)=O)CC4)n2)cn1

>  <AUC(0-t) / ng·h/mL>
382

$$$$
>  <compound>
Cc1cnc(Nc2cnn(C)c2)nc1NC1CN(C(=O)CC#N)CC12CCCC2 (stereo not drawn)

>  <AUC(0-t) / ng·h/mL>
272

$$$$
>  <compound>
Cn1cc(Nc2ncc(Cl)c(NC3CCC4CN(C(=O)CC#N)CC4C3)n2)cn1 (stereo not drawn)

>  <AUC(0-t) / ng·h/mL>
176

$$$$
>  <compound>
N#CCC(=O)N1CCC2(CCC(Nc3nc(Nc4cnn(CC5CC5)c4)ncc3Cl)CC2)CC1

>  <AUC(0-t) / ng·h/mL>
252

$$$$
>  <compound>
Cc1cnc(Nc2cnn(C)c2)nc1NC1CC2CN(S(C)(=O)=O)CC2C1 (stereo not drawn)

>  <AUC(0-t) / ng·h/mL>
184

$$$$
>  <compound>
Cc1c(Nc2ncc(Cl)c(NC3CC4CN(C(=O)CC#N)CC4C3)n2)cnn1C (stereo not drawn)

>  <AUC(0-t) / ng·h/mL>
201

$$$$
>  <compound>
Cc1cc(Nc2ncc(Cl)c(NC3CC4CN(C(=O)CC#N)CC4C3)n2)nn1C (stereo not drawn)

>  <AUC(0-t) / ng·h/mL>
422

$$$$
>  <compound>
N#CCC(=O)N1CC2CC(Nc3nc(Nc4cnn(CC5CC5)c4)ncc3Cl)CC2C1 (stereo not drawn)

>  <AUC(0-t) / ng·h/mL>
244

$$$$
>  <compound>
Cc1cc(Nc2ncc(Cl)c(NC3CCC4(CC3)CCN(C(=O)CC#N)CC4)n2)nn1C

>  <AUC(0-t) / ng·h/mL>
381

$$$$
>  <compound>
Cn1cc(Nc2ncc(Cl)c(NC3CCC4(CC3)CCN(C(=O)C(F)(F)F)CC4)n2)cn1

>  <AUC(0-t) / ng·h/mL>
370

$$$$
